Experiment: Toxicity liver stage against HepG2, at 10uM
Assay type: cell-based
Design: test concentration 10 uM, cell line HepG2-A16-CD81EGFP
Conditions: human, HepG2-A16-CD81EGFP cells; read-out: INHIBITION

{"COMPOUND": "CCN(Cc1nc2c(cnn2C)c(=O)[nH]1)c1cc(C)ccc1C", "cytotoxicity at 10 µM (%)": -11.3}
{"COMPOUND": "Cn1ccnc1CN(CCO)Cc1ccc(C(F)(F)F)cc1", "cytotoxicity at 10 µM (%)": -17.3}
{"COMPOUND": "Cc1cnn(CCNCc2ccc(OCc3noc(C)n3)cc2)c1", "cytotoxicity at 10 µM (%)": 1.33}
{"COMPOUND": "CN(CC1(CO)CCCC1)c1nc2c(c(=O)[nH]1)Cc1ccccc1OC2", "cytotoxicity at 10 µM (%)": 11.7}
{"COMPOUND": "COc1cc(N2C[C@@H]3COC[C@]3(C(=O)NCc3ccccn3)C2)ncn1", "cytotoxicity at 10 µM (%)": 7.55}
{"COMPOUND": "CC(C)(C)C(=O)NCCn1ccc(-c2ccncc2)n1", "cytotoxicity at 10 µM (%)": -26.7}
{"COMPOUND": "CC(C)(CNC(=O)Nc1cccc(-c2nccs2)c1)C(N)=O", "cytotoxicity at 10 µM (%)": -10}
{"COMPOUND": "Cc1cc(C)n(CC2CN(CCOc3ccc(C#N)cc3)CCO2)n1 (stereo not drawn)", "cytotoxicity at 10 µM (%)": -6.31}
{"COMPOUND": "CN(Cc1ccccc1Cl)C(C(=O)O)c1ccc(F)c(CO)c1 (stereo not drawn)", "cytotoxicity at 10 µM (%)": -46.4}
{"COMPOUND": "CO[C@@H]1CN(c2ccccc2)S(=O)(=O)[C@@]12CCN(C)C2", "cytotoxicity at 10 µM (%)": 3.33}
{"COMPOUND": "CCc1n[nH]c(C(=O)N2CCN(c3ccc4ccccc4c3)CC2)c1C", "cytotoxicity at 10 µM (%)": -3.03}
{"COMPOUND": "CC(C)n1ccnc1C1CCN(Cc2ccc(Cl)s2)CC1", "cytotoxicity at 10 µM (%)": -7.09}
{"COMPOUND": "Cc1nc(CN2C(=O)CC[C@@H]3[C@H]2CCN3C(=O)c2ccccn2)cs1", "cytotoxicity at 10 µM (%)": -77.7}

The measurements presented in this section are drawn from ChEMBL document CHEMBL4513216.
